experiment: growth inhibition, single agents and combos, HD-MB03, cell-based, BGB or cisplatin IC20 combos, synergistic combos for chromothripsis tumors (AID 1671455); conditions: HD-MB03 medulloblastoma cells, measured here: combo with BGB at IC20, at 0.5 µM, stronger effect = higher value
Given measured inhibition, output Satisfied if it is greater than or equal to 20% and Not satisfied if not.

Some solved cases for reference:
- Smiles text: "CN(C)CCN1C(=O)c2cccc3cc(N)cc(c23)C1=O"
  Discrete label: "Not satisfied"
- Smiles text: "O=c1cc(N2CCOCC2)oc2c1ccc1ccccc12"
  Discrete label: "Not satisfied"
- Smiles text: "CC(=O)Nc1ccc(C(=O)Nc2ccccc2N)cc1"
  Discrete label: "Not satisfied"
- Smiles text: "CN(C)c1ccc(C(=O)NCCCCCCC(=O)NO)cc1"
  Discrete label: "Satisfied"
- Smiles text: "COc1cc(C=O)c([N+](=O)[O-])cc1OC"
  Discrete label: "Not satisfied"
- Smiles text: "COc1ccc(-n2c(SCCCN3C(=O)c4cccc5cccc(c45)C3=O)nnc2-c2ccncc2)cc1"
  Discrete label: "Not satisfied"
- Smiles text: "CC(=O)Nc1nc(C)c(-c2ccc(Cl)c(S(=O)(=O)NCCO)c2)s1"
  Discrete label: "Not satisfied"
- Smiles text: "NC(=O)c1nc(F)c[nH]c1=O"
  Discrete label: "Not satisfied"
- Smiles text: "CC(=O)[C@]1(N)Cc2c(O)c3c(c(O)c2[C@@H](O[C@H]2C[C@H](O)[C@H](O)CO2)C1)C(=O)c1ccccc1C3=O"
  Discrete label: "Not satisfied"
- Smiles text: "CCCCc1nc2cc(/C=C/C(=O)NO)ccc2n1CCN(CC)CC"
  Discrete label: "Satisfied"

Exam item: Test whether the molecule `O=C(/C=C/c1cccc(S(=O)(=O)Nc2ccccc2)c1)NO` records inhibition of 20% or higher.
Marked response: Satisfied

Exam item: Test whether the molecule `N=C1CCCN1Cc1[nH]c(=O)[nH]c(=O)c1Cl` records inhibition of 20% or higher.
Marked response: Not satisfied

Exam item: Test whether the molecule `Nc1ccc(-c2ccc3ncc4ccc(=O)n(-c5cccc(C(F)(F)F)c5)c4c3c2)cn1` records inhibition of 20% or higher.
Marked response: Not satisfied

Exam item: Test whether the molecule `Nc1ncnc2c1c(-c1cnc3[nH]ccc3c1)nn2C1CCCC1` records inhibition of 20% or higher.
Marked response: Not satisfied

Exam item: Test whether the molecule `Cc1ccc([N+](=O)[O-])cc1S(=O)(=O)N(C)/N=C/c1cnc2ccc(Br)cn12` records inhibition of 20% or higher.
Marked response: Satisfied

Exam item: Test whether the molecule `CS(=O)(=O)c1ccc(-c2nnc(/C=C/c3nnc(-c4ccc(C#N)cc4)o3)n2-c2ccccc2Cl)nc1` records inhibition of 20% or higher.
Marked response: Not satisfied

Exam item: Test whether the molecule `O=c1[nH]c([C@@H]2CCCN2)nc2c1oc1ccc(Cl)cc12` records inhibition of 20% or higher.
Marked response: Not satisfied

Exam item: Test whether the molecule `Cc1cn([C@@H]2O[C@H](CO)[C@@H](O)[C@@H]2F)c(=O)[nH]c1=O` records inhibition of 20% or higher.
Marked response: Not satisfied

Exam item: Test whether the molecule `Nc1nc2n[nH]nc2c(=O)[nH]1` records inhibition of 20% or higher.
Marked response: Not satisfied
